The measurements presented in this section are drawn from paper PMC8901119.

experimentalDetails: Stability of peptides in HepG2 whole cell lysate
Type: in vitro ADME
conditionLabel: human, HepG2 lysate, 8 hours, read-out: % intact peptide
Starred links: 1 amine or outer side, 2 acyl side, 3 side chain; linkers in the order of their positions; H or OH if unused. Non-standard residues stand in square brackets, D forms with d. Residues, ends and D or L forms follow the SMILES beside them. Ala(7-MeO-coumarin-4-yl) = COc1ccc2c(C[C@H](N)C(=O)O)cc(=O)oc2c1; X1 = C[C@H](NC(=S)[C@H](CCCNC(=N)N)N[*:1])C(=O)[*:2]

compound	remaining at 8 h, 20 μM (%)
COc1ccc2c(C[C@H](NC(=O)[C@H](C)NC(=S)[C@H](CCCNC(=N)N)NC(=O)[C@H](Cc3ccccc3)NC(=O)[C@H](CC(C)C)NC(=O)[C@H](Cc3c[nH]cn3)NC(=O)[C@@H](N)Cc3cc(=O)oc4cc(OC)ccc34)C(=O)O)cc(=O)oc2c1 [R^S1A, μHLFR^SAμ] (H-[Ala(7-MeO-coumarin-4-yl)]HLF[X1][Ala(7-MeO-coumarin-4-yl)]-OH)	80.7
